Target: T. brucei phosphofructokinase (TbPFK) (Trypanosoma brucei brucei, UniProt O15648)
Construct: made in house; host or cells: Escherichia coli C41 (pET28a, codon optimised gene)
Sequence (O15648 1-487): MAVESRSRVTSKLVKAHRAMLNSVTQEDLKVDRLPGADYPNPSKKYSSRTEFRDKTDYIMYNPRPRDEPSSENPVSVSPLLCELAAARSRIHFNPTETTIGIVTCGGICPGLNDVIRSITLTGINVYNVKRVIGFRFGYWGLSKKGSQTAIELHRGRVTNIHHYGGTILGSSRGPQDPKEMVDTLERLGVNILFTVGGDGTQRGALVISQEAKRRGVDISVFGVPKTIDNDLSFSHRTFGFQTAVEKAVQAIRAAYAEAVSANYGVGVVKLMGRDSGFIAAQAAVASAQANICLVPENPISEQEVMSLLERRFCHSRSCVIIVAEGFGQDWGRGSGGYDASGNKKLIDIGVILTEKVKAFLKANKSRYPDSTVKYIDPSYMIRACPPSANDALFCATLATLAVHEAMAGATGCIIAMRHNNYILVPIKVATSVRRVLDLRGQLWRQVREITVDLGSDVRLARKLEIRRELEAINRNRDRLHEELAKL
Experiment: ADP-Glo assay for measuring PFK inhibition
Assay type: biochemical
Settings: read-out: IC50 TbPFK
pIC50: −log10 of the molar value.
pIC50 reference
reported-endpoint: pIC50

1. NCCn1ccc2c(ccn2Cc2ccc(Cl)c(Cl)c2)c1=O: 7.52
2. O=c1c2ccn(Cc3ccc(Cl)c(Cl)c3)c2ccn1CCO: 7.14
